// endpoint IC50 / system Matrix metalloproteinase-9 (Bos taurus)

>>> test_value("CC(C)(C)c1ccc(OC[C@@H](Cn2ccnc2[N+](=O)[O-])OC(=O)c2ccc(NC=C3C(=O)C=CC3=O)cc2)cc1 [TX-2036]")
"67 µM"
>>> test_value("CC(C)(C)c1ccc(OC[C@H](Cn2ccnc2[N+](=O)[O-])OC(=O)c2ccc(NC=C3C(=O)C=CC3=O)cc2)cc1 [TX-2037]")
"103 µM"
>>> test_value("COC[C@@H](Cn1ccnc1[N+](=O)[O-])OC(=O)c1ccc(NC(=O)C(F)(F)F)cc1 [TX-2045]")
"> 240 µM"

Below: the item to evaluate.
Task: Please report the recorded IC50 for COC[C@H](Cn1ccnc1[N+](=O)[O-])OC(=O)c1ccc(NC(=O)C(F)(F)F)cc1 [TX-2046] .
Output: > 240 µM

Hey, just so you know, these numbers are from BindingDB's records for doi:10.1016/j.bmc.2008.04.041.
